These data points were gathered from patent US8952157B2.

Entries and their pKi values follow.
Target: GST-Bcl-2 (Homo sapiens (Human))
Experiment: Time Resolved-Fluorescence Resonance Energy Transfer (TR-FRET) Bcl-2 binding assay
Details: GST-Bcl-2 1 nM, F-Bak peptide probe 100 nM, Tb-anti-GST antibody 1 nM; Ki by Wang's equation
Note on pKi: it is the negative log10 of concentration, concentration in mol/L.

In the examples that follow, each entry is paired with its recorded pKi.
>  <Compound>
CC1(C)CCC(CN2CCN(c3ccc(C(=O)NS(=O)(=O)c4ccc(NCCN5CCOCC5)c([N+](=O)[O-])c4)c(Oc4ccccc4F)c3)CC2)=C(c2ccc(Cl)cc2)C1

>  <Readout type>
pKi

>  <Meas value>
10.17

$$$$
>  <Compound>
O=C(NS(=O)(=O)c1ccc(NCC2CCOCC2)c([N+](=O)[O-])c1)c1ccc(N2CCN(Cc3cc(CCN4CCCC4)ccc3-c3ccc(Cl)cc3)CC2)cc1Oc1cccc(Cl)c1

>  <Readout type>
pKi

>  <Meas value>
10.11

$$$$

Prompt line: Need pKi of CN(C)CCCNc1ccc(S(=O)(=O)NC(=O)c2ccc(N3CCN(Cc4ccccc4-c4ccc(Cl)cc4)CC3)cc2Oc2ccc(Cl)cc2)cc1[N+](=O)[O-] , thanks.
Response line: 9.23

Prompt line: Consider the compound CN1C(C)(C)CC(Nc2ccc(S(=O)(=O)NC(=O)c3ccc(N4CCN(CC5=C(c6ccc(Cl)cc6)CC(C)(C)CC5)CC4)cc3Oc3ccccc3Cl)cc2[N+](=O)[O-])CC1(C)C and give its measured pKi.
Response line: 10.28

Prompt line: May I ask what pKi has been recorded for CC1(C)CCC(CN2CCN(c3ccc(C(=O)NS(=O)(=O)c4ccc(NCC5CCOCC5)c([N+](=O)[O-])c4)c(Oc4ccccc4-c4ccn[nH]4)c3)CC2)=C(c2ccc(Cl)cc2)C1 ?
Response line: 8.94

* * *

Molecular target: GST-Bcl-2 (Homo sapiens (Human), UniProt P10415)
Sequence (P10415 whole entry): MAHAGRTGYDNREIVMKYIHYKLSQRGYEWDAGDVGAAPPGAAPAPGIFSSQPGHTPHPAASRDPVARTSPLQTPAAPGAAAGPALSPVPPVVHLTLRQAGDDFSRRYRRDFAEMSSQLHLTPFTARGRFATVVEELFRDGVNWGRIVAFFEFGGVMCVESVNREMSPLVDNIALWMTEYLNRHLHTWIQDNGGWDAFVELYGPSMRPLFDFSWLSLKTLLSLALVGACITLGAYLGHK
Experiment: Time Resolved-Fluorescence Resonance Energy Transfer (TR-FRET) Bcl-2 binding assay
Conditions: GST-Bcl-2 1 nM, F-Bak peptide probe 100 nM, Tb-anti-GST antibody 1 nM; Ki by Wang's equation
Method: Determination of the utility of compounds having Formula (I) as binders to and inhibitors of anti-apoptotic Bcl-2 proteins was performed using the Time Resolved-Fluorescence Resonance Energy Transfer (TR-FRET) Assay. Tb-anti-GST antibody was purchased from Invitrogen (Catalog No. PV4216). Representative compounds were serially diluted in dimethyl sulfoxide (DMSO) starting at 50 μM (2× starting concentration; 10% DMSO) and 10 μL were transferred into a 384-well plate. […]
Readout type: pKi
# log scale: pKi equals minus log10 of the concentration in mol/L

// worked examples, pKi included
>  <Structure>
CC1(C)CCC(CN2CCN(c3ccc(C(=O)NS(=O)(=O)c4ccc(NCCCN5CCOCC5)c([N+](=O)[O-])c4)c(Oc4cccc(Cl)c4F)c3)CC2)=C(c2ccc(Cl)cc2)C1

>  <Readout type>
pKi

>  <Meas value>
9.97

$$$$
>  <Structure>
CC1(C)CCC(CN2CCN(c3ccc(C(=O)NS(=O)(=O)c4cnc(NC5CCN(C6CCOCC6)CC5)c(Br)c4)c(Oc4cc5cc[nH]c5cc4F)c3)CC2)=C(c2ccc(Cl)cc2)C1

>  <Readout type>
pKi

>  <Meas value>
9.27

$$$$
>  <Structure>
CC1(C)CCC(CN2CCN(c3ccc(C(=O)NS(=O)(=O)c4ccc(NC5CCN(CC6CC6)CC5)c([N+](=O)[O-])c4)c(Oc4cc5cc[nH]c5cc4F)c3)CC2)=C(c2ccc(Cl)cc2)C1

>  <Readout type>
pKi

>  <Meas value>
10.15

$$$$
>  <Structure>
CC1(C)CCC(CN2CCN(c3ccc(C(=O)NS(=O)(=O)c4ccc(NCCCN5CCOCC5)c([N+](=O)[O-])c4)c(Oc4ccc(F)cc4Cl)c3)CC2)=C(c2ccc(Cl)cc2)C1

>  <Readout type>
pKi

>  <Meas value>
9.67

$$$$
>  <Structure>
CN1CCC(Nc2ccc(S(=O)(=O)NC(=O)c3ccc(N4CCN(Cc5cc6c(cc5-c5ccc(Cl)cc5)OCO6)CC4)cc3Oc3ccccc3Cl)cc2[N+](=O)[O-])CC1

>  <Readout type>
pKi

>  <Meas value>
8.60

$$$$

Prompt line: Give the measured pKi of CC1(C)CCC(CN2CCN(c3ccc(C(=O)NS(=O)(=O)c4ccc(NCC5(F)CCOCC5)c([N+](=O)[O-])c4)c(Oc4cc5cc[nH]c5cc4F)c3)CC2)=C(c2ccc(Cl)cc2)C1 .
Response line: 10.31

Prompt line: Could you tell me which pKi is on file for CN(C)CCCNc1ccc(S(=O)(=O)NC(=O)c2ccc(N3CCN(Cc4ccccc4-c4ccc(Cl)cc4)CC3)cc2Oc2cccc(Cl)c2)cc1[N+](=O)[O-] ?
Response line: 10.10
